test system: SF-539; assay: NCI tumour cell line growth inhibition, 48 h
Active and inactive are the calls of the source. No stated cut-off is given here; in the data, active = GI50 up to about 1.1 µM and inactive = higher.
Assign a class; possible classes are TRUE (active), FALSE (inactive)

Here are 8 molecules together with their reported answers.
molecule | answer.label
N#CN=C(NCCO)NCCO | FALSE
COC1OC2COC(c3ccccc3)OC2C(OC(=S)c2ccccc2)C1O (stereo unspecified) | FALSE
C=C1[C@H](OC(C)=O)[C@H]2[C@@H](OC(C)=O)[C@@H](C)C[C@]2(C)C(=O)[C@H](C)/C=C/C(C)(C)C(=O)[C@H](OCC(C)C)[C@H]1OC(C)=O | FALSE
COc1ccc2c(c1)CCC1C3(CCCC21C)OCCO3 (stereo unspecified) | FALSE
O=[N+]([O-])c1ccc(NC(=S)Nc2ccccn2)cc1 | FALSE
CC(=O)O[C@H]1[C@@H]2[C@@H]3[C@@H](C[C@H]1C)[C@@H](C)CO[C@@]1(C)CC/C=C(/C)C[C@@H]2O[C@@H]31 | FALSE
COc1cccc(Nc2nc(C)c([N+](=O)[O-])c(Nc3cccc(OC)c3)n2)c1 | FALSE
OCCCCCCCCCCCOc1ccc(C2OCC3(CO2)COC(c2ccc(OCCCCCCCCCCCO)cc2)OC3)cc1 (stereo unspecified) | FALSE

Prompt: Tell me the recorded outcome of this test for S=C(N/N=C\C=N/NC(=S)N1CCCCC1)N1CCCCC1 .
Completion: TRUE

Prompt: What did this assay record as the result for Cc1cc2c(cc1Cl)SC(N/N=C(\N)c1ccc(Cl)cc1)=NS2(=O)=O ?
Completion: FALSE
